System: Zymoseptoria tritici (the causal agent of wheat leaf blotch)
procedure.summary: Test B: preventive spray on wheat seedlings, wheat leaf blotch, visual disease rating
Format: in vivo
protocol.conditions: 250 ppm test suspension; wheat seedlings; 100 = 100% disease control
Description: General protocol for preparing test suspensions for Tests A-D: the test compounds were first dissolved in acetone in an amount equal to 3% of the final volume and then suspended at the desired concentration (in ppm) in acetone and purified water (50/50 mix by volume) containing 250 ppm of the surfactant PEG400 (polyhydric alcohol esters). The resulting test suspensions were then used in Tests A-D. The test suspension was sprayed to the point of run-off on wheat seedlings. […]
Marks after values point to notes of the source that are not given here.
Consider the following molecules and their measured Test B disease control rating readings.
attribute.measured: Test B disease control rating

In [3]: df
Out[3]:
                                    molecule                             system_tested  result
 0  O=C(NCCC(F)(F)F)c1coc(COc2ccc(-c3noc(C(F)(F)F)n3)cc2)n1  Zymoseptoria tritici (the causal agent of wheat leaf blotch)    6* %
 1  COCCNC(=O)c1coc(COc2ccc(-c3noc(C(F)(F)F)n3)cc2)n1  Zymoseptoria tritici (the causal agent of wheat leaf blotch)   94* %
 2  CCNC(=O)c1csc(Cc2ccc(-c3noc(C(F)(F)F)n3)cc2)n1  Zymoseptoria tritici (the causal agent of wheat leaf blotch)   99* %
 3  N#CCNC(=O)c1csc(COc2ccc(-c3noc(C(F)(F)F)n3)cc2)n1  Zymoseptoria tritici (the causal agent of wheat leaf blotch)   28* %
 4  CCOC(=O)c1cnn(CCN2CCC(c3noc(C(F)(F)F)n3)CC2)c1  Zymoseptoria tritici (the causal agent of wheat leaf blotch)    0* %
 5  COCC(COC)NC(=O)c1csc(Cc2ccc(-c3noc(C(F)(F)F)n3)cc2)n1  Zymoseptoria tritici (the causal agent of wheat leaf blotch)   92* %
 6  O=C(CCl)COC(=O)c1cnn(Cc2ccc(-c3noc(C(F)(F)F)n3)cc2)c1  Zymoseptoria tritici (the causal agent of wheat leaf blotch)   43* %
 7  OC(c1ccc(-c2noc(C(F)(F)F)n2)cc1)c1cccc(Cl)c1 (centres unmarked)  Zymoseptoria tritici (the causal agent of wheat leaf blotch)   48* %
 8  N#CCNC(=O)c1csc(Cc2ccc(-c3noc(C(F)(F)F)n3)cc2)n1  Zymoseptoria tritici (the causal agent of wheat leaf blotch)   94* %
 9  COCCNC(=O)c1csc(COc2ccc(-c3noc(C(F)(F)F)n3)cc2)n1  Zymoseptoria tritici (the causal agent of wheat leaf blotch)   65* %
10  O=C(NCC=C(Cl)Cl)c1coc(Cc2ccc(-c3noc(C(F)(F)F)n3)cc2)n1  Zymoseptoria tritici (the causal agent of wheat leaf blotch)   10* %
11  OC(c1ccc(-c2noc(C(F)(F)F)n2)cc1)c1cccc(F)c1 (centres unmarked)  Zymoseptoria tritici (the causal agent of wheat leaf blotch)   43* %
12  CCOC(=O)c1cnn(CN2CCC(c3noc(C(F)(F)F)n3)CC2)c1  Zymoseptoria tritici (the causal agent of wheat leaf blotch)    0* %
13  CCOC(=O)c1ccc(Cc2ccc(-c3noc(C(F)(F)F)n3)cc2)cc1  Zymoseptoria tritici (the causal agent of wheat leaf blotch)   50* %
14  O=C(NC1CCC(F)(F)CC1)c1coc(Cc2ccc(-c3noc(C(F)(F)F)n3)cc2)n1  Zymoseptoria tritici (the causal agent of wheat leaf blotch)    0* %
15  O=C(NCCC(F)(F)F)c1csc(COc2ccc(-c3noc(C(F)(F)F)n3)cc2)n1  Zymoseptoria tritici (the causal agent of wheat leaf blotch)   22* %
16  O=C(NCC(F)(F)F)c1coc(COc2ccc(-c3noc(C(F)(F)F)n3)cc2)n1  Zymoseptoria tritici (the causal agent of wheat leaf blotch)    0* %
17  Cc1ccccc1C(O)c1ccc(-c2noc(C(F)(F)F)n2)cc1 (centres unmarked)  Zymoseptoria tritici (the causal agent of wheat leaf blotch)    5* %
18  CON=C(CCl)COC(=O)c1cnn(Cc2ccc(-c3noc(C(F)(F)F)n3)cc2)c1  Zymoseptoria tritici (the causal agent of wheat leaf blotch)   47* %
19  O=C(NCCn1cccn1)c1csc(COc2ccc(-c3noc(C(F)(F)F)n3)cc2)n1  Zymoseptoria tritici (the causal agent of wheat leaf blotch)   15* %
20  O=C(NCCn1cccn1)c1csc(Cc2ccc(-c3noc(C(F)(F)F)n3)cc2)n1  Zymoseptoria tritici (the causal agent of wheat leaf blotch)   28* %
21  CCOC(=O)c1cccc(Cc2ccc(-c3noc(C(F)(F)F)n3)cc2)c1  Zymoseptoria tritici (the causal agent of wheat leaf blotch)   47* %
22  O=C(NCCCC(F)(F)F)c1coc(Cc2ccc(-c3noc(C(F)(F)F)n3)cc2)n1  Zymoseptoria tritici (the causal agent of wheat leaf blotch)   80* %
23  CCOC(=O)c1csc(COc2ccc(-c3noc(C(F)(F)F)n3)cc2)n1  Zymoseptoria tritici (the causal agent of wheat leaf blotch)    0* %
24  N#CCNC(=O)c1coc(COc2ccc(-c3noc(C(F)(F)F)n3)cc2)n1  Zymoseptoria tritici (the causal agent of wheat leaf blotch)   22* %
25  COC(=O)c1cnc(Oc2ccc(-c3noc(C(F)(F)F)n3)cc2)s1  Zymoseptoria tritici (the causal agent of wheat leaf blotch)   59* %

---

Tested on: Zymoseptoria tritici (the causal agent of wheat leaf blotch)
procedure.summary: Test B: preventive spray on wheat seedlings, wheat leaf blotch, visual disease rating
Type: in vivo
protocol.conditions: test suspension 250 ppm; wheat seedlings
Marks after values point to notes of the source that are not given here.
attribute.measured: Test B disease control rating

                                   compound                             system_tested             attribute_measured  result
0  FC(F)(F)c1nc(-c2ccc(Cn3nc4ccccc4n3)cc2)no1 [compound 93]  Zymoseptoria tritici (the causal agent of wheat leaf blotch)  Test B disease control rating     39%
1  COCC(COC)NC(=O)c1coc(Cc2ccc(-c3noc(C(F)(F)F)n3)cc2)n1 [compound 279]  Zymoseptoria tritici (the causal agent of wheat leaf blotch)  Test B disease control rating   94* %
2  O=C(c1coc(Cc2ccc(-c3noc(C(F)(F)F)n3)cc2)n1)N1CCC(F)(F)CC1 [compound 228]  Zymoseptoria tritici (the causal agent of wheat leaf blotch)  Test B disease control rating   99* %
3  COC(=O)c1ccc(COc2ccc(-c3noc(C(F)(F)F)n3)cc2)s1 [compound 317]  Zymoseptoria tritici (the causal agent of wheat leaf blotch)  Test B disease control rating   54* %
4  O=C(NCCn1cccn1)c1csc(Cc2ccc(-c3noc(C(F)(F)F)n3)cc2)c1 [compound 289]  Zymoseptoria tritici (the causal agent of wheat leaf blotch)  Test B disease control rating   80* %
5  O=C1COCCN1Cc1ccc(-c2noc(C(F)(F)F)n2)s1 [compound 325]  Zymoseptoria tritici (the causal agent of wheat leaf blotch)  Test B disease control rating   36* %
6  CC(C)c1nn(Cc2ccc(-c3noc(C(F)(F)F)n3)cc2)c(=O)n1C [compound 237]  Zymoseptoria tritici (the causal agent of wheat leaf blotch)  Test B disease control rating     94%
7  CCOC(=O)c1nn(Cc2ccc(-c3noc(C(F)(F)F)n3)cc2)nc1Br [compound 84]  Zymoseptoria tritici (the causal agent of wheat leaf blotch)  Test B disease control rating     66%

---

Test system: Puccinia recondita f. sp. tritici (the causal agent of wheat leaf rust)
procedure.summary: Test C: preventive spray on wheat seedlings, wheat leaf rust, visual disease rating
Type: in vivo
protocol.conditions: test suspension 10 ppm; wheat seedlings
attribute.measured: Test C disease control rating

In [3]: df
Out[3]:
                                    molecule             attribute_measured  result
 0  O=C(c1csc(Cc2ccc(-c3noc(C(F)(F)F)n3)cc2)n1)N1CCC(F)(F)C1  Test C disease control rating     86%
 1  Cc1cc(C(=O)OCC#N)nn1Cc1ccc(-c2noc(C(F)(F)F)n2)cc1 [compound 184]  Test C disease control rating     55%
 2  CCOc1ccccc1OCCOC(=O)c1cnn(Cc2ccc(-c3noc(C(F)(F)F)n3)cc2)c1  Test C disease control rating     86%
 3  Cc1cc(C(=O)OC(=O)C(F)(F)F)nn1Cc1ccc(-c2noc(C(F)(F)F)n2)cc1  Test C disease control rating      0%
 4  CCN(CC)C(=O)c1coc(Cc2ccc(-c3noc(C(F)(F)F)n3)cc2)n1  Test C disease control rating     98%
 5  FC(F)(F)c1nc(-c2ccc(Cn3ncc4cnc(Cl)nc43)cc2)no1  Test C disease control rating    100%
 6  CCOC(=O)C1=NOC(Cc2ccc(-c3noc(C(F)(F)F)n3)cc2)C1 (stereo not shown)  Test C disease control rating     19%
 7  COCCNC(=O)c1ccc(Cc2ccc(-c3noc(C(F)(F)F)n3)cc2)cc1  Test C disease control rating     97%
 8  O=C(NC1CSC1)c1coc(Cc2ccc(-c3noc(C(F)(F)F)n3)cc2)n1  Test C disease control rating     98%
 9  CCOC(=O)c1cnn(CS(=O)(=O)Cc2ccc(-c3noc(C(F)(F)F)n3)cc2)c1  Test C disease control rating     85%
10  CC(C)(C#N)NC(=O)c1coc(Cc2ccc(-c3noc(C(F)(F)F)n3)cc2)n1  Test C disease control rating     99%
11  CCOC(=O)c1csc(Cc2ccc(-c3noc(C(F)(F)F)n3)cc2)n1  Test C disease control rating     93%
12  FC(F)(F)c1nc(-c2ccc(CCCn3ccc(-c4ccc(Cl)cc4)n3)cc2)no1  Test C disease control rating      0%
13  N#CCNC(=O)c1coc(Cc2ccc(-c3noc(C(F)(F)F)n3)cc2)c1  Test C disease control rating     79%
14  CC(C)(C)NC(=O)c1cnn(Cc2ccc(-c3noc(C(F)(F)F)n3)cc2)c1  Test C disease control rating    100%
15  CCOC(=O)c1cnn(C[S+]([O-])Cc2ccc(-c3noc(C(F)(F)F)n3)cc2)c1 (stereo not shown)  Test C disease control rating     99%

The values you see were collected from patent US20240090503A1.
